Test system: Cells
Protocol Details: Cell viability, CTG luminescence, 72 h (Example 7, Experiment 1)
Format: cell-based
Measurement Conditions: Homo sapiens, NCI-H226, 72 h, NCI-H226
The entries below are paired with their reported IC50.
Endpoint Name: IC50 (µM)

>>> df
                                   molecule  recorded_value
0  CC(=O)N[C@@H](Cc1c[nH]c2ccccc12)C(=O)N[C@@H](CCC(=O)C=[N+]=[N-])C(=O)OC(C)C            14.5
1  [N-]=[N+]=CC(=O)CC[C@H](N)C(=O)O [DON, 6-Diazo-5-oxo-L-norleucine, reference compound]            1.87

====

System: Cells
Protocol Details: Cell viability, CTG luminescence, 72 h (Example 7, Experiment 1)
Format: cell-based
Measurement Conditions: Homo sapiens, ZR-75-1, 72 h, ZR-75-1
pIC50: −log10 of the molar value.
Endpoint Name: pIC50

                                   compound  recorded_value
0  CC(=O)N[C@@H](Cc1c[nH]c2ccccc12)C(=O)N[C@@H](CCC(=O)C=[N+]=[N-])C(=O)OC(C)C            3.86
1  [N-]=[N+]=CC(=O)CC[C@H](N)C(=O)O [DON, 6-Diazo-5-oxo-L-norleucine, reference compound]            3.99

====

Test system: Ninety four (94) cell lines and PBMC
Protocol Details: Cell viability assay, SRB staining, 94 cell lines and PBMC (Example 7, Experiment 2)
Assay type: cell-based
Measurement Conditions: Homo sapiens, MHH-ES-1, MHHES1, bone
Endpoint Name: IC50 (µM)

In [3]: df
Out[3]:
                                   compound  recorded_value
0  CC(=O)N[C@@H](Cc1c[nH]c2ccccc12)C(=O)N[C@@H](CCC(=O)C=[N+]=[N-])C(=O)OC(C)C            6.34
1  [N-]=[N+]=CC(=O)CC[C@H](N)C(=O)O [DON, 6-Diazo-5-oxo-L-norleucine, reference compound]               2

====

The entries below are paired with their reported IC50.
Tested on: Cells
Protocol Details: Cell viability, CTG luminescence, 72 h (Example 7, Experiment 1)
Format: cell-based
Measurement Conditions: Homo sapiens, SNB-19, 72 h, SNB-19
Endpoint Name: IC50 (nM)

>>> print(df.to_string())
                                   molecule  endpoint_name  readout_unit  recorded_value
0  [N-]=[N+]=CC(=O)CC[C@H](N)C(=O)O [DON, 6-Diazo-5-oxo-L-norleucine, reference compound]           IC50            nM            2030
1  CC(=O)N[C@@H](Cc1c[nH]c2ccccc12)C(=O)N[C@@H](CCC(=O)C=[N+]=[N-])C(=O)OC(C)C           IC50            nM            3210

====

The entries below are paired with their reported pIC50.
Tested on: Ninety four (94) cell lines and PBMC
Protocol Details: Cell viability assay, SRB staining, 94 cell lines and PBMC (Example 7, Experiment 2)
Assay type: cell-based
Measurement Conditions: Homo sapiens, HepG2, HEPG2, liver
pIC50: −log10 of the molar value.
Endpoint Name: pIC50

                                   compound  recorded_value
0  CC(=O)N[C@@H](Cc1c[nH]c2ccccc12)C(=O)N[C@@H](CCC(=O)C=[N+]=[N-])C(=O)OC(C)C            5.01
1  [N-]=[N+]=CC(=O)CC[C@H](N)C(=O)O [DON, 6-Diazo-5-oxo-L-norleucine, reference compound]            5.05
